Molecular target: T1, human CD8 on human pan T cells (human, UniProt P01732 22-235; P10966 22-210)
T1 construct: Native CD8 on the CD4-negative population of human pan T cells
T1 sequence (P01732 22-235, chain 1 of 2): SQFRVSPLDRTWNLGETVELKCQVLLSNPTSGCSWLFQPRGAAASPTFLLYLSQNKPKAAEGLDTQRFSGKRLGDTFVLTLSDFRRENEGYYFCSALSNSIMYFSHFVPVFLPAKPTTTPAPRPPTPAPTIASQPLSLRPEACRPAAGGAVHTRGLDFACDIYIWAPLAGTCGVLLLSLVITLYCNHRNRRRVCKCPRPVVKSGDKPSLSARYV
T1 sequence (P10966 22-210, chain 2 of 2): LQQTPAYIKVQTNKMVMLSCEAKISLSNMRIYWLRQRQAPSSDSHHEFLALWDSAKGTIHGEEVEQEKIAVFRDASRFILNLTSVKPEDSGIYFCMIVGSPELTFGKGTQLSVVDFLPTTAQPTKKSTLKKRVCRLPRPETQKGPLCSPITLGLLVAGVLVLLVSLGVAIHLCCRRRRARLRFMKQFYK
Experiment: flow cytometry, 20 nM mAb on human pan T cells
quantity: Cell Binding to Human PanT Signal/Background (of CD4 negative population)

[[record]]
binder = "CD8B356 (antibody, human IgG1, kappa, V domains shown, full-length human IgG1, kappa) VH: DVQLQESGPGLVKPSQSLSLTCSVTGYSITSGYYWNWIRQFPGNKLEWMGYISYDGSNNYNPSLKNRISITRDTSKNQFFLKLNSVTTEDTATYYCVRNHGDAMDYWGQGTSVTVSS VL: DIVLTQSQKFMSTTVGDRVSITCKASQNVGTAVAWYQQKPGQSPKLLIYSASYRYTGVPDRFTGSGSGTHFTLTISNMQSEDLADYFCQQYSSYLTFGSGTKLEIKR"
observed = 777

[[record]]
binder = "CD8B254 (antibody, human IgG1, kappa, V domains shown, full-length human IgG1, kappa) VH: EVQLQQSGAELVKPGASVKMSCKTSGYTFSSYWITWVKQRPGQGLEWVGDIYPGSGSTNYNEKFKSKAALTVDTSSSTAFMQLNSLTSEDSAVYYCARESITTRITPFDHWGQGTTLTVSS VL: DVVMTQTPLSLPVSLGDQASISCRSSQSLVHSSGNTYLHWYLQKPGQSPKLLIYKGSNRFSGVSDRFSGSGSGTDFTLKISRVEAEDLGVYFCSQSTHVPFTFGSGTKLEIKR"
observed = 23

[[record]]
binder = "CD8B268 (antibody, human IgG1, kappa, V domains shown, full-length human IgG1, kappa) VH: QVQLQQSGAELVKPGASVKLSCKASGYTFTVYTIHWVKQRSGQGLEWIGWFYPGSGNIKYNEKFKDKATLTADKSSHTVYMELSRLTSEDSAVYFCARHEDNHYYDGNSWFAYWGQGTLVTVSA VL: DIQMTQSPASLSASVGQTVTITCRASGNIHNYLAWFQQKQGKSPQLLVYNAKTLADGVPSRFSGSGSGTQYSLKINSLQTEDFGNYYCQHFWNTPYTFGGGTKLEIKR"
observed = 1170

[[record]]
binder = "CD8B269 (antibody, human IgG1, kappa, V domains shown, full-length human IgG1, kappa) VH: DVQLQESGPGLVKPSQSLSLTCSVTGYSITSGYYWNWIRQFPGNKLEWMGYISYDGSNNYNPSLKNRISITRDTSKNQFFLKLNSVTTEDTATYYCVRNHGDAMDHWGQGTTLTVSS VL: DIVMTQSQKFMSTSVGDRVRVTCKASQNVGTDVAWYQQKPGQSPKALIYSASYRYSGVPDRFTGSGSGTDFTLTISDVQSEDLAEYFCQQYKSYPLTFGAGTKLELKR"
observed = 26


Here is another binder to look at.
Q: Look up Cell Binding to Human PanT Signal/Background (of CD4 negative population) for this binder: CD8B337 (antibody, human IgG1, kappa, V domains shown, full-length human IgG1, kappa) VH: QVTLKESGPGKVQPSQTLSLTCSFSGFSLSTSGMGVSWIRKPSGKGLEWLAHIFWDDDRRYKSSLKSRLTISKDTSSNQVFLMITSVDTADSATYYCARRVGYGDYAYFDVWGAGTTVTVSS VL: DIQMTQYPASLSVSVGETVTITCRASENIYSDLAWYQQKQGKSPQLLVYAATNLADGVPSRFSGSGSGTQYSLKINSLQSEDFGNYYCQHFWGTPWTFGGGTKLEIKR
Ans: 1980

Values compiled from patent US20210214440A1.
